Provenance of the data: PubChem BioAssay (NCI)

Tested on: OVCAR-5 ovarian
Assay: NCI tumour cell line growth inhibition, 48 h; in the data active = GI50 below about 0.43 µM; inactive = the rest
Where a SMILES comes first, the peptide text is derived from it. The star is where a group is joined. Trt = c1ccc(C(c2ccccc2)(c2ccccc2)*)cc1; Cbz = O=C(OCc1ccccc1)*
Mark one answer only. Choices: 1 (active), 0 (inactive)

Example cases with answers are listed next.
- COMPOUND: "CCN(CC)Cc1cc(Nc2c3ccccc3nc3cc(Cl)ccc23)ccc1O"
  CAT: 0
- COMPOUND: "COc1cc2c(cc1OCCCOc1ccc(-c3nc4ccc(N5CCN(C)CC5)cc4[nH]3)cc1)N=C[C@@H]1CCCN1C2=O"
  CAT: 1
- COMPOUND: "COc1cc(/C=N/NC(=O)c2ccccc2Nc2cccc(C(F)(F)F)c2)cc(OC)c1OC"
  CAT: 0
- COMPOUND: "COC(=O)C(CSC(c1ccccc1)(c1ccccc1)c1ccccc1)NC(=O)C(CC(N)=O)NC(=O)OCc1ccccc1 (stereo not drawn) (Cbz-Asn-Cys(Trt)-OMe; configuration not given here)"
  CAT: 0
- COMPOUND: "Nc1c(C(=O)Nc2cccc3ccccc23)sc2nc3c(cc12)C(=O)CCC3"
  CAT: 0
- COMPOUND: "O=C1/C(=C\\c2ccccc2)C2OCC=C3CN4CCC56c7ccccc7N1C5C2C3CC46 (stereo not drawn)"
  CAT: 0

Prompt: Give the logged outcome of this assay for the following compound: CC(=O)[C-](C(C)=O)c1ccccc1.CC(=O)[C-](C(C)=O)c1ccccc1.CC(=O)[C-](C(C)=O)c1ccccc1.[Cl-].[Zr+4]
Response: 0

Prompt: Give the logged outcome of this assay for the following compound: O=C(CCCCCCCCC(=O)N/N=C\c1cc(Cl)ccc1O)N/N=C\c1cc(Cl)ccc1O
Response: 0

Prompt: Give the logged outcome of this assay for the following compound: C=C(C)[C@@H]1CC[C@]2(C(=O)NC(C)=O)CC[C@]3(C)[C@H](CC[C@@H]4[C@@]5(C)CCCNC(C)(C)[C@@H]5CC[C@]43C)[C@@H]12
Response: 0

Prompt: Give the logged outcome of this assay for the following compound: Cc1ccc(-c2n[nH]c(=O)c3noc(-c4ccc(C)cc4)c23)cc1
Response: 0

Prompt: Give the logged outcome of this assay for the following compound: O=C(Nc1cccc(C(F)(F)F)c1)c1cc2ccccc2cc1O
Response: 0

Prompt: Give the logged outcome of this assay for the following compound: CCOC(=O)c1c(C)n(Cc2ccccc2)c2c1cc1oc(=O)c(=O)n3cnc2c13
Response: 0

Prompt: Give the logged outcome of this assay for the following compound: CN(C(=O)CNC(=O)/C=C/c1cccc(Cl)c1)C1CCS(=O)(=O)CC1
Response: 0
